Test system: A549
Assay: Cytotoxicity against human A549 cells assessed as decrease in cell viability after 48 to 72 hrs by MTT assay
Type: functional, cell-based
pIC50: −log10 of the molar value.
MEASURED_PROPERTY: pIC50

[[record]]
molecular_string = "COc1ccc(C2=C(Cl)C(=O)c3ccc(-c4ccccc4)cc32)cc1"
measured_property = "pIC50"
value_reported = 3.43

[[record]]
molecular_string = "COc1ccc(C2=C(Cl)C(=O)c3ccc(-c4ccc(C)cc4)cc32)cc1"
measured_property = "pIC50"
value_reported = 4.74


---

Target: Alpha-ketoglutarate-dependent dioxygenase alkB homolog 3 (Homo sapiens, UniProt Q96Q83)
Sequence (Q96Q83 whole entry): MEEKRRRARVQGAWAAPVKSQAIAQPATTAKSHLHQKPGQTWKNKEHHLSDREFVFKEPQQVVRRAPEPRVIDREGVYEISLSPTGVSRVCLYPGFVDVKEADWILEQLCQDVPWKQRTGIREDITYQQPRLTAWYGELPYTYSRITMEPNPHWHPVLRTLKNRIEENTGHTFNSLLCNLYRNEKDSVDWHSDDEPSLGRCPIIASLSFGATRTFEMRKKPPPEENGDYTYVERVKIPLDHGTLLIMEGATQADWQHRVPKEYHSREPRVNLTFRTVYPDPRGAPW
Assay: Binding affinity to recombinant human AlkBH3 incubated for 2 mins by isothermal titration calorimetric method
pKd: −log10 of the molar value.
MEASURED_PROPERTY: pKd

[[record]]
molecular_string = "COc1ccc(C2=C(Cl)C(=O)c3ccc(-c4ccc(C)cc4)cc32)cc1"
value_reported = 5.11

